For each of the compounds below, state its TGI.
# Tested on: EKVX NSCLC
# TEST NAME: NCI tumour cell line growth inhibition, 48 h

Prompt: Requested read-out TGI, target or system EKVX NSCLC, entry COc1ccc(NC(=O)C(=O)C2CNC(=O)NC2=O)c(OC)c1 (stereo not given)
Completion: > 100 µM

Prompt: Requested read-out TGI, target or system EKVX NSCLC, entry CCOC(=O)/C(=C/c1ccc([N+](=O)[O-])cc1)C(=O)c1ccccc1
Completion: 17.4 µM

Prompt: Requested read-out TGI, target or system EKVX NSCLC, entry COc1ccc(-c2c(C#N)c(-c3ccc(C)cc3)n(NS(=O)(=O)c3ccccc3)c(=O)c2C#N)cc1
Completion: > 100 µM

Prompt: Requested read-out TGI, target or system EKVX NSCLC, entry C=C1C(=O)O[C@@H]2C(=O)[C@@H](C)[C@@H]3C=CC(=O)[C@@]3(C)[C@@H](OC(=O)/C(C)=C\C)[C@H]12
Completion: 2.53 µM

Prompt: Requested read-out TGI, target or system EKVX NSCLC, entry O=c1cc(-c2ccc(Cl)cc2)[nH]c2ncccc12
Completion: > 100 µM

Prompt: Requested read-out TGI, target or system EKVX NSCLC, entry CC(=O)OCCCCn1cnc2nc(Nc3ccccc3)nc(Cl)c21
Completion: > 100 µM

Prompt: Requested read-out TGI, target or system EKVX NSCLC, entry C=C(C)CC1=C(OCC)C(OC)(OCC)C1=O (stereo not given)
Completion: > 100 µM

Prompt: Requested read-out TGI, target or system EKVX NSCLC, entry COc1ccc(N(CC(=O)NCCC[Te]c2ccccc2)C(=O)CCSC2=C(C)C(=O)c3ccccc3C2=O)cc1
Completion: 2.98 µM

Prompt: Requested read-out TGI, target or system EKVX NSCLC, entry CCCc1cc2cc(-n3nc(C)c4c3CC(C)(C)CC4=O)cc(NC3CCC(O)CC3)c2c(=O)[nH]1 (stereo not given)
Completion: > 100 µM

Prompt: Requested read-out TGI, target or system EKVX NSCLC, entry Cc1ccc2c(=O)cc(-c3cccc4ccccc34)[nH]c2n1
Completion: > 100 µM

* * *

For each of the compounds below, state its TGI.
# Tested on: MOLT-4 leukemia
# TEST NAME: NCI tumour cell line growth inhibition, 48 h

Prompt: Requested read-out TGI, target or system MOLT-4 leukemia, entry COC(=O)/C(C#N)=C1\CCC(O)N1C (stereo unspecified)
Completion: > 100 µM

Prompt: Requested read-out TGI, target or system MOLT-4 leukemia, entry Clc1ccc(Nc2nc(Cl)c3[nH]cnc3n2)cc1Cl
Completion: 61.3 µM

Prompt: Requested read-out TGI, target or system MOLT-4 leukemia, entry Nc1ccc2c(c1)C(=O)N(O)C2=O
Completion: > 100 µM

Prompt: Requested read-out TGI, target or system MOLT-4 leukemia, entry CCOC(=O)c1ccc(N(CCOS(C)(=O)=O)CCOS(C)(=O)=O)cc1C
Completion: > 100 µM

Prompt: Requested read-out TGI, target or system MOLT-4 leukemia, entry C/C(=N\NC(=O)c1cccnc1)c1cccc(/C(C)=N/NC(=O)c2cccnc2)n1
Completion: 12 µM

Prompt: Requested read-out TGI, target or system MOLT-4 leukemia, entry CCOC(=O)CC(=O)C(=O)NNC1=NCCCN1
Completion: > 100 µM

Prompt: Requested read-out TGI, target or system MOLT-4 leukemia, entry ClCc1ccc(-c2ccc(Cn3cnc4c(Cl)nc(Cl)nc43)cc2)cc1
Completion: 6.97 µM

Prompt: Requested read-out TGI, target or system MOLT-4 leukemia, entry CCOc1ccccc1N=Nc1c(-c2ccccc2)nn(C(=O)CC(=O)Nc2cccc(Cl)c2)c1-c1ccccc1
Completion: > 100 µM

Prompt: Requested read-out TGI, target or system MOLT-4 leukemia, entry COC(=O)c1ccc(N=NN(C)COc2ccc(C#N)cc2)cc1
Completion: > 100 µM

Prompt: Requested read-out TGI, target or system MOLT-4 leukemia, entry CC(=O)Nc1ccc(C(=O)NN2C(=O)C(Cl)C2c2cc(Br)ccc2O)cc1 (stereo unspecified)
Completion: > 100 µM

Prompt: Requested read-out TGI, target or system MOLT-4 leukemia, entry O=C(NC1CCC(=O)N1C(=O)OCc1ccccc1)OCc1ccccc1 (stereo unspecified)
Completion: > 100 µM

Prompt: Requested read-out TGI, target or system MOLT-4 leukemia, entry Cc1n[nH]c(=S)n1/N=C/c1ccc(F)c(Oc2ccccc2)c1
Completion: > 100 µM

Prompt: Requested read-out TGI, target or system MOLT-4 leukemia, entry C=C[C@]1(C)CCC2=C(CCC3C2(C)CCC[C@]3(C)CO)C1 (stereo partly specified)
Completion: 84.9 µM

Prompt: Requested read-out TGI, target or system MOLT-4 leukemia, entry CN[C@]12CC3(C=CC(=O)C=C3)O[C@@]1(Cc1ccc(OC)cc1)N(C)C(=O)N2
Completion: 9.88 µM

Prompt: Requested read-out TGI, target or system MOLT-4 leukemia, entry OCC1NCC(O)C(O)C1O (stereo unspecified)
Completion: > 100 µM

Prompt: Requested read-out TGI, target or system MOLT-4 leukemia, entry CCCN1CN(C(C(=O)N[C@@H]2C(=O)N3C2SC(C)(C)C3C(=O)O)c2ccccc2)CSC1=S (stereo partly specified)
Completion: > 100 µM

* * *

# System: SN12C renal
# TEST NAME: NCI tumour cell line growth inhibition, 48 h
RECORDED METRIC: TGI (µM)
Note: unit µM is implicit; provide only the numeric part.

Prompt: Query: TGI; subject: COc1ccc(N(CC(=O)NCCC[Te]c2ccccc2)C(=O)CCSC2=C(C)C(=O)c3ccccc3C2=O)cc1
Completion: 3.77

Prompt: Query: TGI; subject: COc1cc(/C=C/C(=O)c2ccc(Nc3ncnc4ccccc34)cc2)cc(OC)c1
Completion: 38

Prompt: Query: TGI; subject: COc1ccc(CNc2nc3cc(C(F)(F)F)ccc3nc2C(=O)O)cc1OC
Completion: 77.9

Prompt: Query: TGI; subject: CCOC(=O)c1c(-c2ccccc2)[n+](=O)c2ccc(Cl)cc2n1[O-]
Completion: 13.1

* * *

# System: NCI-H23 lung
# TEST NAME: NCI tumour cell line growth inhibition, 48 h; in the data active = GI50 below about 0.43 µM; inactive = the rest
Respond using exactly one of the listed classes: 1 (yes) = active, 0 (no) = inactive

Prompt: State the result this test recorded for CC(=O)O[C@H]1C(=O)O[C@@H]2C[C@H]3C(C)=CC(=O)[C@@H](O)[C@]3(C)[C@H]3[C@@]4(O)OC[C@]32[C@@H]1[C@@H](C)[C@H]4O .
Completion: 1 (yes)

Prompt: State the result this test recorded for Cn1ncc2c(/N=C/c3cccs3)[nH]c(=S)nc21 .
Completion: 0 (no)

Prompt: State the result this test recorded for COc1ccc(/C=C2\CN(Cc3cn(CCCNc4ccnc5cc(Cl)ccc45)nn3)C/C(=C\c3ccc(OC)c(OC)c3)C2=O)cc1OC .
Completion: 0 (no)

* * *

# System: MALME-3M melanoma
# TEST NAME: NCI tumour cell line growth inhibition, 48 h
RECORDED METRIC: TGI

Prompt: Query: TGI; subject: O=CN1CCN(C(=O)c2cc(Cl)cc(Cl)c2)C1=S
Completion: 20.7 µM

Prompt: Query: TGI; subject: CCCCCCCC/C=C\CCCCCCC(F)C(=O)O (stereo unspecified)
Completion: > 12.5 µM

Prompt: Query: TGI; subject: Cc1cc2c(cc1Cl)SC(N/N=C(\N)c1ccc(Cl)cc1)=NS2(=O)=O
Completion: > 100 µM

Prompt: Query: TGI; subject: CN(CCCNC(=O)c1cn(C)c2c1ccc1cc(Cl)c(Cl)cc12)CCCNC(=O)c1cn(C)c2c1ccc1cc(Cl)c(Cl)cc12
Completion: 31.8 µM

Prompt: Query: TGI; subject: COc1cc(/C=C/C(=O)c2ccc(Nc3ncnc4ccccc34)cc2)cc(OC)c1
Completion: > 100 µM

Prompt: Query: TGI; subject: c1ccc(C2C3=C(CCCC3)Nc3nc4cc5ccccc5cc4n32)cc1 (stereo unspecified)
Completion: > 100 µM

Prompt: Query: TGI; subject: NS(=O)(=O)c1ccc(NNc2c3ccccc3nc3ccccc23)cc1
Completion: 15.9 µM

Prompt: Query: TGI; subject: COc1ccc2c(c1)CCc1c(-c3noc4c3CCc3cc(OC)ccc3-4)noc1-2
Completion: > 100 µM

Prompt: Query: TGI; subject: Cc1ccc2c(=O)cc(-c3cccc4ccccc34)[nH]c2n1
Completion: 0.0495 µM

Prompt: Query: TGI; subject: CCOC(=O)c1nc2ccccc2nc1NCc1ccc(OC)cc1
Completion: > 100 µM

Prompt: Query: TGI; subject: O=C(O)C1(C(=O)O)CC1(C(=O)O)C(=O)O
Completion: > 100 µM

* * *

# Tested on: SK-MEL-2 melanoma
# TEST NAME: NCI tumour cell line growth inhibition, 48 h
Lab note: anything with TGI at or over 30 µM counts as yes (1); the rest go in no (0).

Prompt: Reported TGI at or above 30 µM? O=C(CCN1CC2CCC(CC2)C1)c1cccs1
Completion: yes (1)

Prompt: Reported TGI at or above 30 µM? O=C1CCCC2=C(N1)C(=O)C=CC2=O
Completion: yes (1)

Prompt: Reported TGI at or above 30 µM? COc1ccc(-c2cnc3ccnn3c2-c2cc(OC)c(OC)c(OC)c2)cc1
Completion: yes (1)

Prompt: Reported TGI at or above 30 µM? CN(C)CCn1c(=O)c2ccc3c4c(nn3CCN(C)C)c3cc(N)ccc3n(c1=O)c24
Completion: no (0)

Prompt: Reported TGI at or above 30 µM? COc1ccc(-c2c(C#N)c(-c3ccc(C)cc3)n(NS(=O)(=O)c3ccccc3)c(=O)c2C#N)cc1
Completion: yes (1)

Prompt: Reported TGI at or above 30 µM? O=c1c2ccccc2nc(-c2ccc(Br)cc2)n1NC1OC(CO)C(O)C(O)C1O (stereo unspecified)
Completion: yes (1)

Prompt: Reported TGI at or above 30 µM? Cc1cccc(N=Nc2c(C)nn(C(=O)CC(=O)Nc3ccccc3)c2C)c1
Completion: yes (1)

Prompt: Reported TGI at or above 30 µM? COc1cc(/C=C/C(=O)c2ccc(Nc3ncnc4ccccc34)cc2)cc(OC)c1
Completion: yes (1)

Prompt: Reported TGI at or above 30 µM? COc1cc(/C=C2\CN(C)C/C(=C\c3cc(OC)c(OC)c(OC)c3)C2=O)cc(OC)c1OC
Completion: no (0)

Prompt: Reported TGI at or above 30 µM? CCOC(=O)c1ccc(N(CCOS(C)(=O)=O)CCOS(C)(=O)=O)cc1C
Completion: yes (1)

Prompt: Reported TGI at or above 30 µM? NCC#CCNCCCN1CC1
Completion: yes (1)
